Target: panel of 442 kinases (Homo sapiens, UniProt Q15349)
Construct: purchased Ambit Biosciences (scanMAXX KINOMEscan)
Sequence (Q15349 whole entry): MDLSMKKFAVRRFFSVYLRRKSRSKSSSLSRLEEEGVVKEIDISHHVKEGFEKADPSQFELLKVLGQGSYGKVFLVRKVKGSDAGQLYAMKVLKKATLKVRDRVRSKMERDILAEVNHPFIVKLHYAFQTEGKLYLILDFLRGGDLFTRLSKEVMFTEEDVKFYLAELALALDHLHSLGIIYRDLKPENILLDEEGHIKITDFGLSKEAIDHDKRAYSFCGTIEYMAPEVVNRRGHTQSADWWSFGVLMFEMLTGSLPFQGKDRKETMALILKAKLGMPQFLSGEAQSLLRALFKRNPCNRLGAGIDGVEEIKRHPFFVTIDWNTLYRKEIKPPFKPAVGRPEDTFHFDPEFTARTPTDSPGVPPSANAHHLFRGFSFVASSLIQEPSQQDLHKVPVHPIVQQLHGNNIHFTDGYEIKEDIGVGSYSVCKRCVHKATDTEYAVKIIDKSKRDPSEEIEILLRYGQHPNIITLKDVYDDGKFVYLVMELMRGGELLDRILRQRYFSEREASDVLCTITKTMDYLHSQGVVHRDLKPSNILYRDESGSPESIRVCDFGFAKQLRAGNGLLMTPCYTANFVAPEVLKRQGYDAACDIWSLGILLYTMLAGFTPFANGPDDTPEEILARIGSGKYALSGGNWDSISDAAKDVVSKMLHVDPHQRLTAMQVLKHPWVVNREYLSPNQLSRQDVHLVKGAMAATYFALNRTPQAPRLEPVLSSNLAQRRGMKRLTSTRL
Test: biochemical
Type: binding
Conditions: kinase RSK3(Kin.Dom.1-N-terminal); 1 µM; read-out: RSK3(Kin.Dom.1-N-terminal) (% of control at 1 µM)
Quantity Name: remaining activity at 1 µM (%)
Please state the figure in %; there is no need to write the unit.

Below, 3 compounds whose answers are already recorded.
Compound	System Under Test	remaining activity at 1 µM [%]
Nc1cc(C(F)(F)F)c(-c2cc(N3CCOCC3)nc(N3CCOCC3)n2)cn1 [Buparlisib]	panel of 442 kinases (Homo sapiens, UniProt Q15349)	95
FC(F)c1nc2ccccc2n1-c1nc(N2CCOCC2)nc(N2CCOCC2)n1 [ZSTK474]	panel of 442 kinases (Homo sapiens, UniProt Q15349)	100
COc1ncc(-c2ccc3nccc(-c4ccnnc4)c3c2)cc1NS(=O)(=O)c1ccc(F)cc1F [Omipalisib]	panel of 442 kinases (Homo sapiens, UniProt Q15349)	100

Continue with the compound presented below.
Task: Reported remaining activity at 1 µM for panel of 442 kinases (Homo sapiens, UniProt Q15349), given Cn1c(=O)n(-c2ccc(C(C)(C)C#N)cc2)c2c3cc(-c4cnc5ccccc5c4)ccc3ncc21 [Dactolisib] ?
Output: 70

----------
Target: panel of 442 kinases (Homo sapiens, UniProt Q8TDX7)
Construct: purchased Ambit Biosciences (scanMAXX KINOMEscan)
Sequence (Q8TDX7 whole entry): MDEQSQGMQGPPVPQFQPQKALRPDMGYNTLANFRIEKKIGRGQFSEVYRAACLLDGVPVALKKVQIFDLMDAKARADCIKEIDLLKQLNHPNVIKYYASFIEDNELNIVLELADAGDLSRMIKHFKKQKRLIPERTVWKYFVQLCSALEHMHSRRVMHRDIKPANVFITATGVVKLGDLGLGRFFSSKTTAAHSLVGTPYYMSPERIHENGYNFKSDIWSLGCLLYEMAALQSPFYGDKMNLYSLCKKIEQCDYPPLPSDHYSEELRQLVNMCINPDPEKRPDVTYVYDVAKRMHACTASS
Experiment: biochemical
Assay type: binding
Conditions: kinase NEK7; 1 µM; read-out: % of control at 1 µM
Quantity Name: remaining activity at 1 µM (%)
Please reply with the bare figure in % and do not write the unit itself.

Nc1cc(C(F)(F)F)c(-c2cc(N3CCOCC3)nc(N3CCOCC3)n2)cn1 100
COc1ncc(-c2ccc3nccc(-c4ccnnc4)c3c2)cc1NS(=O)(=O)c1ccc(F)cc1F 100
FC(F)c1nc2ccccc2n1-c1nc(N2CCOCC2)nc(N2CCOCC2)n1 68

Task: // returns reported remaining activity at 1 µM for input `Cn1c(=O)n(-c2ccc(C(C)(C)C#N)cc2)c2c3cc(-c4cnc5ccccc5c4)ccc3ncc21`
Output: 90

----------
Target: CYP1A2 (Homo sapiens)
Sequence (P05177 1-516): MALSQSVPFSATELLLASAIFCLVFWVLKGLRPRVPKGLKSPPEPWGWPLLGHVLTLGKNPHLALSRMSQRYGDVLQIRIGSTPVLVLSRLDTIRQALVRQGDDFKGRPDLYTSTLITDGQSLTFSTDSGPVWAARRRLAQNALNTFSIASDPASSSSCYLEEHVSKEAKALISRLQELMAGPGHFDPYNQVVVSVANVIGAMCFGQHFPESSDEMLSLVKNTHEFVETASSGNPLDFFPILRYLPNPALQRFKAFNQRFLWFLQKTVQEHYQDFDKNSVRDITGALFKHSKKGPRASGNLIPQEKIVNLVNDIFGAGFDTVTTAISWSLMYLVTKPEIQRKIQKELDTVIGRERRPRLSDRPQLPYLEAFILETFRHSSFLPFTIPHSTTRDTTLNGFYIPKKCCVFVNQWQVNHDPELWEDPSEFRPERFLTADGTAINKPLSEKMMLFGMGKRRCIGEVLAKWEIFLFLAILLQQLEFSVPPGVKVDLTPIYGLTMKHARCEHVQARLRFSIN
pIC50: −log10 of the molar value.
Quantity Name: pIC50

Task: Entry COc1cccc2c1nc(C(F)F)n2-c1nc(N2CCOCC2)nc(N2CCN(S(=O)(=O)CCN(C)C)CC2)n1 [SN32976] has what pIC50?
Output: < 4.60
